Where do these numbers come from? They come from patent US20070203079A1.

- Test system: Pdat-1::GFP+Pdat-1::α-synuclein+Pdat-1::torsinA worms
- experimental-protocol: α-synuclein toxicity assay, wt torsinA
- Format: in vivo, C. elegans
Structures can show the parent of a compound that is named as a salt.
quantity-kind: enhanced wild type DA neuron survival (%)

INSERT INTO measurements (molecule, unit_tag, data_value) VALUES
  ('C=N[C@@H](C(=O)N[C@@H]1C(=O)N2[C@@H]1SC(C)(C)[C@@H]2C(=O)O)c1ccccc1 [Compound 235, Metampicillin sodium salt]', '%', 30.3),
  ('CCn1cc(C(=O)O)c(=O)c2cc3c(cc21)OCO3', '%', 31.4),
  ('CCn1cc(C(=O)O)c(=O)c2ccc(C)nc21', '%', 28.9);
